- protocol_details: Minimum inhibitory concentration against […] ATCC 13813
- Type: functional
- measurement_setup: Streptococcus agalactiae
Documented MIC across a set of compounds
Number in µg/mL, nothing else.

# compound, result_units, MIC
data = [
    ("CSC(=S)NC[C@H]1CN(c2ccc(N3CCN(c4ccccn4)CC3)c(F)c2)C(=O)O1", "µg/mL", 0.25),
    ("COc1cccc(N2CCN(c3ccc(N4C[C@H](CNC(N)=S)OC4=O)cc3F)CC2)c1", "µg/mL", 0.06),
    ("NC(=S)NC[C@H]1CN(c2ccc(N3CCN(c4cccc(Cl)c4)CC3)c(F)c2)C(=O)O1", "µg/mL", 0.008),
]

[ask] Query (compound): `CC(=S)NC[C@H]1CN(c2ccc(N3CCN(c4cccc(F)c4)CC3)c(F)c2)C(=O)O1` ; field requested: MIC
[reply] 0.12

[ask] Query (compound): `COC(=S)NC[C@H]1CN(c2ccc(N3CCN(c4ccccn4)CC3)c(F)c2)C(=O)O1` ; field requested: MIC
[reply] 0.06

[ask] Query (compound): `NC(=S)NC[C@H]1CN(c2ccc(N3CCN(c4ccccc4Cl)CC3)c(F)c2)C(=O)O1` ; field requested: MIC
[reply] 0.12

[ask] Query (compound): `COC(=S)NC[C@H]1CN(c2ccc(N3CCN(c4ccccc4)CC3)c(F)c2)C(=O)O1` ; field requested: MIC
[reply] 0.12

[ask] Query (compound): `CC(=S)NC[C@H]1CN(c2ccc(N3CCN(c4cccc(Cl)c4)CC3)c(F)c2)C(=O)O1` ; field requested: MIC
[reply] 0.03

[ask] Query (compound): `COc1cccc(N2CCN(c3ccc(N4C[C@H](CNC(=S)SC)OC4=O)cc3)CC2)c1` ; field requested: MIC
[reply] 0.25

[ask] Query (compound): `NC(=S)NC[C@H]1CN(c2ccc(N3CCN(c4ccccc4)CC3)c(F)c2)C(=O)O1` ; field requested: MIC
[reply] 0.06

[ask] Query (compound): `CSC(=S)NC[C@H]1CN(c2ccc(N3CCN(c4ccccc4C)CC3)c(F)c2)C(=O)O1` ; field requested: MIC
[reply] 0.12

----------
- protocol_details: Minimum inhibitory concentration against […] ATCC 13813
- Format: functional
- measurement_setup: Streptococcus agalactiae
Documented MIC across a set of compounds
Number in µg/mL, nothing else.

# smiles_str, MIC [µg/mL]
records = [
    ("COc1ccccc1N1CCN(c2ccc(N3C[C@H](CNC(N)=S)OC3=O)cc2F)CC1", 0.25),
    ("CSC(=S)NC[C@H]1CN(c2ccc(N3CCN(c4cccc(Cl)c4)CC3)c(F)c2)C(=O)O1", 1),
    ("CC(=S)NC[C@H]1CN(c2ccc(N3CCN(c4ccc(Cl)cc4)CC3)c(F)c2)C(=O)O1", 0.25),
    ("NC(=S)NC[C@H]1CN(c2ccc(N3CCN(c4cccc(C(F)(F)F)c4)CC3)c(F)c2)C(=O)O1", 0.12),
    ("COC(=S)NC[C@H]1CN(c2ccc(N3CCN(c4cccc(OC)c4)CC3)c(F)c2)C(=O)O1", 0.12),
]

[ask] Query (compound): `CC(=S)NC[C@H]1CN(c2ccc(N3CCN(c4ccccn4)CC3)c(F)c2)C(=O)O1` ; field requested: MIC
[reply] 0.12

[ask] Query (compound): `Cc1ccccc1N1CCN(c2ccc(N3C[C@H](CNC(N)=S)OC3=O)cc2F)CC1` ; field requested: MIC
[reply] 0.12

[ask] Query (compound): `COC(=S)NC[C@H]1CN(c2ccc(N3CCN(c4cccc(Cl)c4)CC3)c(F)c2)C(=O)O1` ; field requested: MIC
[reply] 0.12
